Tested on: Wistar rats
test_details: Subacute toxicity: glomerular filtration rate (creatinine clearance) and serum creatinine
Assay type: in vivo
measurement_setup: rats, p.o., 14 days at 10% of LD50 (CCl4, APAP: once daily, 3 days); mean ± SEM, n = 6
Below, each entry is listed with its recorded Serum Creatinine.
Reply with just the number (in mg/dL).

Solved cases below.
ClC(Cl)(Cl)Cl [CCl4, carbon tetrachloride, reference compound]    0.45
N#Cc1cn2ccccc2n1 [Compound 2a, imidazo[1,2-a]pyridine-2-carbonitrile]    0.66
CCOC(=O)c1cn2ccccc2n1    0.80

Next compound, Serum Creatinine to be filled in.
Query string: Indicate the recorded Serum Creatinine value for this compound: N#Cc1nc2ccccn2c1[N+](=O)[O-]
Result string: 0.56
